Procedure Summary: Quantitative highthroughput screen to assess conditional lethalithy of NOMO1 cells grown in RPMI1640 with untreated serum (RPMI+s) (AID 1963876); note: nearly all actives have a fitted effect of over 35% in size;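 for viability: 100% = DMSO wells and 0% = empty wells without cells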
Test Conditions: NOMO1 AML cells in RPMI+serum, CellTiter-Glo viability, 48 h; series mostly up to 45.8 µM
Records with an inconclusive call do not appear. The source made the active and inactive calls. Calls come from the whole dose curve; as a rule, active = well fitted cell-killing curve with a large enough effect; inconclusive = small, poorly fitted or top-dose-only effect; inactive = flat fitted curve, though single readings scatter.
In this exercise, the only acceptable responses are active, inactive

Request: Status in this test for Cc1ccc(C(=O)Nc2ccc(S(=O)(=O)O)c3cc(S(=O)(=O)O)cc(S(=O)(=O)O)c23)cc1NC(=O)c1cccc(NC(=O)Nc2cccc(C(=O)Nc3cc(C(=O)Nc4ccc(S(=O)(=O)O)c5cc(S(=O)(=O)O)cc(S(=O)(=O)O)c45)ccc3C)c2)c1 ?
Response: inactive

Request: What about Cc1cc2nc3c(=O)[nH]c(=O)nc-3n(CC(O)C(O)C(O)CO)c2cc1C (stereo not drawn) ?
Response: inactive

Request: For CN1c2ccccc2C(=O)N2CCc3c([nH]c4ccccc34)C21 (stereo not drawn) then?
Response: inactive

Request: Also, COc1ccc(-c2ccc3c(N4CCOC[C@H]4C)nc(N4CCOC[C@H]4C)nc3n2)cc1CO please.
Response: active

Request: Could you do the same for COc1cc2c(cc1-c1c(C)noc1C)ncc1[nH]c(=O)n([C@H](C)c3ccccn3)c12 , please?
Response: active

Request: Also need O=C(NCCCCN1CCOCC1)c1cc2ccccc2o1 , thanks.
Response: inactive

Request: # iterate: Cc1ccc2c(c1)C(=O)[C@]1(O)CCN(c3ccccc3)C1=N2
Response: inactive

Request: Please answer likewise for CC[C@]12C=CCN3CC[C@@]4(c5cc([C@@]6(C(=O)OC)C[C@H]7C[C@@H](C(C)(F)F)CN(Cc8c6[nH]c6ccccc86)C7)c(OC)cc5N(C)[C@H]4[C@@](O)(C(=O)OC)[C@H]1OC(C)=O)[C@@H]32
Response: active

Request: Same thing, different compound: COc1ccc(COc2cc3oc(=O)c4cc(C(C)O)ccc4c3cc2OC)cc1 (stereo not drawn)
Response: inactive

Request: Field entry: NC(CO)(CO)CCc1ccc(Sc2cccc(OCc3ccccc3)c2)cc1Cl
Response: active

Request: Subsequent entry: OCc1ccc(-c2ccc(-c3ccc(CO)s3)o2)s1
Response: inactive

Request: Would you mind doing CCC[C@H](N[C@@H](C)C(=O)N1[C@@H]2CCCC[C@H]2C[C@H]1C(=O)O)C(=O)OCC as well?
Response: active

Request: Here is the next compound: C[N+]1(C)[C@@H]2C[C@@H](OC(=O)C(O)(c3cccs3)c3cccs3)C[C@H]1[C@@H]1O[C@@H]12
Response: inactive

Request: Field entry: CC1(C)CNc2cc(NC(=O)c3cccnc3NCc3ccncc3)ccc21
Response: inactive

Request: Same lookup for O=C1CCC[C@@H]2[C@H]3CCC[N+]4([O-])CCC[C@@H](CN12)[C@@H]34 (stereo partly drawn) , please.
Response: active

Request: Also Cc1cc(=O)oc2cc(O)ccc12 ?
Response: inactive

Request: And then O=C(O)c1nc(=O)[nH]c(=O)[nH]1 , what is it?
Response: inactive

Request: Lookup O=C(O)CCNc1cc(N2CCc3ccccc3CC2)nc(-c2ccccn2)n1
Response: inactive

---

Procedure Summary: Viability qHTS for spleen associated tyrosine kinase inhibitor (SYKi) drug resistant MV4-11 cells (AID 1963824); note: nearly all actives have a fitted effect of over 35% in size
Test Conditions: SYKi-resistant MV4-11 viability, CellTiter-Glo, 72 h; series mostly up to 45 µM
Results filed as inconclusive are left out. Activity calls are given as the source filed them. Calls come from the whole dose curve; as a rule, active = well fitted cell-killing curve with a large enough effect; inconclusive = small, poorly fitted or top-dose-only effect, or effect the other way; inactive = no such curve, though single readings can be large or run the other way.
// classify into 1 for active, 0 for inactive

Request: Which outcome did this test record for the compound NS(=O)(=O)c1cc2c(cc1Cl)NC(CSCc1ccccc1)=NS2(=O)=O ?
Response: 0

Request: Same question, O=C(Nc1ccnc(NC(=O)C2CC2)c1)c1c(Cl)cccc1Cl this time
Response: 1

Request: Next record, please: CN(C)C/C=C/C(=O)Nc1cc2c(Nc3ccc(F)c(Cl)c3)ncnc2cc1O[C@H]1CCOC1
Response: 1

Request: And the next one, CC(C)COc1ccc(CNC(=O)N(Cc2ccc(F)cc2)C2CCN(C)CC2)cc1 ?
Response: 1

Request: What do you get for O=C1N=C(O)CN1/N=C/c1ccc(-c2ccc([N+](=O)[O-])cc2)o1 ?
Response: 0

Request: How about this compound: CC(C)CC(=O)c1c(O)cc2c(c1O)C(CC(C)C)C1=C(O2)C(C)(C)C(=O)C(C)(C)C1=O (centres undefined)
Response: 1

Request: Also CCCOc1ccn2c(C(C)=O)cc(-c3ccccc3S(C)(=O)=O)c2c1 ?
Response: 1

Request: Next entry: C=C1C[C@]23C[C@H]1CC[C@H]2[C@@]1(C)CCC[C@@]2(C)C(=O)O[C@@H]([C@@H]3O)[C@@H]12
Response: 1

Request: What about CCc1c(C(=O)NNC(=O)[C@@H](O)c2cc(F)cc(F)c2)ccc(O)c1C ?
Response: 1

---

Procedure Summary: Quantitative highthroughput screen to assess conditional lethalithy of SEM cells grown in RPMI1640 with dialyzed fetal bovine serum (RPMI+ds) (AID 1963884); note: nearly all actives have a fitted effect of over 35% in size; note: potency is the fitted concentration of half-maximal effect;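 for viability: 100% = DMSO control wells and 0% = empty wells without cells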
Test Conditions: SEM B-ALL cells, RPMI+dialyzed FBS, CellTiter-Glo viability, 48 h; series mostly up to 45.8 µM
Results filed as inconclusive are left out. The source made the active and inactive calls. Calls come from the whole dose curve; as a rule, active = well fitted cell-killing curve with a large enough effect; inconclusive = small, poorly fitted or top-dose-only effect, or effect the other way; inactive = no such curve, though single readings can be large or run the other way.
Measured Attribute: Potency

Some entries whose results are on file:
Cc1ccc(-c2ncn(-c3ccc(Nc4nccc(-c5cccc(N6CCOCC6)c5)n4)cc3)n2)cn1; 148 nM (active)
CC(C)(C)c1cc(C(C)(C)C)c(NC(=O)c2c[nH]c3ccccc3c2=O)cc1O; inactive
C#CCN[C@@H]1CCc2ccccc21; inactive
COc1nc(N)nc2c1ncn2[C@@H]1O[C@H](CO)[C@@H](O)[C@@H]1O; inactive
CC(=O)N(C)C1(c2ccccc2)CCN(CCC[C@]2(c3ccc(Cl)c(Cl)c3)CCCN(C(=O)c3ccccc3)C2)CC1; 1050 nM (active)

Request: Could you share which Potency value was measured for CCN(CC)Cc1ccc2cc(COC(=O)Nc3ccc(C(=O)NO)cc3)ccc2c1 ?
Response: 1870 nM (active)

Request: Also CN(C)Cc1cccc(N=C(c2ccccc2)c2c(O)[nH]c3cc(C(=O)N(C)C)ccc23)c1 , if possible.
Response: 10500 nM (active)

Request: Then CN(C)CCc1c[nH]c2ccc(CS(=O)(=O)N3CCCC3)cc12 ?
Response: 14800 nM (active)

Request: Likewise for O=S(=O)(O)CCSSCCS(=O)(=O)O ?
Response: inactive

Request: Now this one: COc1cccc2c1C(=O)c1c(O)c3c(c(O)c1C2=O)C[C@@](O)(C(=O)CO)C[C@H]3O[C@H]1C[C@H](N)[C@H](O)[C@H](C)O1
Response: 372 nM (active)

Request: Then this molecule: COc1ccc2[nH]cc(CCNC(C)=O)c2c1
Response: inactive

Request: CC(C)c1ccc(Cn2ccc3c4c(N)nc(NC5CC5)nc4ccc32)cc1
Response: 3720 nM (active)

Request: What do you have for CCC1=C(C)CN(C(=O)NCCc2ccc(S(=O)(=O)NC(=O)NC3CCC(C)CC3)cc2)C1=O (centres undefined) ?
Response: inactive

Request: Can you check Oc1cccc(-c2nc(N3CCOCC3)c3oc4ncccc4c3n2)c1 next?
Response: 7620 nM (active)

Request: Same thing, different molecule: NC(=O)c1ccc(I)c([N+](=O)[O-])c1
Response: inactive

---

Procedure Summary: Viability qHTS for spleen associated tyrosine kinase inhibitor (SYKi) naive MV4-11 cells (AID 1963823); note: nearly all actives have a fitted effect of over 40% in size
Test Conditions: MV4-11 AML viability, CellTiter-Glo luminescence, 72 h; series mostly up to 45 µM
Inconclusive results are not listed. Activity calls are given as the source filed them. Calls come from the whole dose curve; as a rule, active = well fitted cell-killing curve with a large enough effect; inconclusive = small, poorly fitted or top-dose-only effect, or effect the other way; inactive = no such curve, though single readings can be large or run the other way.
Bench note: report the call from yes (active), no (inactive)

Request: Recorded test outcome, item N#CC1C(=O)N=C(c2cc(Cl)ccc2O)C=C1c1cc(OCc2ccccc2)cc(OCc2ccccc2)c1 (stereo unspecified)
Response: no

Request: Next compound up: N#Cc1ccc(C(c2ccc(C#N)cc2)n2cncn2)cc1
Response: no

Request: Would you mind doing C=C1CCC2C(OC(=O)C2(O)COC(C)=O)C2C(=C)C(O)CC12 (stereo unspecified) as well?
Response: no

Request: What do you get for CN1CCC(=C2c3ccccc3CC(=O)c3sccc32)CC1 ?
Response: yes

Request: How about this compound: CC(C)(N)c1ccc(-c2nc3ccccc3nc2-c2ccccc2)cc1
Response: yes

Request: Then CCN1/C(=C/C(C)=O)Sc2ccc(OC(C)=O)cc21 ?
Response: yes

---

Procedure Summary: Cellular viability qHTS for adrenocortical cancer (ACC) cell line SW-13 (AID 1963989);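 note: cells grown in serum-free medium with ITS supplement; % is set by controls: 0 for no effect and ±100 for the full control effect; nearly all actives have a fitted effect of over 65% in size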
Test Conditions: SW-13 ACC cells viability, CellTiter-Glo, 48 h; hits give low values
Records with an inconclusive call do not appear.
Measured Attribute: activity (max response) (%)
Quick note: give the figure in %, leave out the unit.

Request: Any idea what its activity (max response) is? The compound is c1ccc2[nH]ccc2c1
Response: 10.5

Request: # repeat for O=C(O)Cn1c(=O)n(Cc2ccc(Br)cc2F)c(=O)c2ccc(Cl)cc21
Response: 14.5

Request: Can you handle Cc1ccc(S(=O)(=O)NC(=O)NC2CCCC2)cc1 next?
Response: 10.7

Request: Further, for COP(=O)(OC)OC(c1ccc(Cl)cc1)P(=O)(OC)OC (stereo unspecified) ?
Response: -0.893

Request: Next: Cn1c(CNc2ccc(C(=N)N)cc2)nc2cc(C(=O)N(CCC(=O)O)c3ccccn3)ccc21
Response: 9.7

Request: Please give the result for CC[N+](C)(C)c1cccc(O)c1 too.
Response: 8.29

Request: Input CCCCS(=N)(=O)CCC(N)C(=O)O (stereo unspecified)
Response: 9.43

Request: Proceed to COc1cc2c(cc1-c1c(C)noc1C)ncc1[nH]c(=O)n([C@H](C)c3ccccn3)c12
Response: -16.6

Request: Note, next up: CC(=O)OCC(=O)[C@H]1CC[C@H]2[C@@H]3CCC4=CC(=O)CC[C@]4(C)[C@H]3CC[C@]12C
Response: 2.66

Request: Try COc1ccc(-c2c(C)nn3c(NCCN4CCOCC4)cc(C)nc23)cc1OC next.
Response: 10.9

Request: Item: CC(C)=CCC/C(C)=C/CO
Response: 10

Request: Follow-up item: COc1cccc(OC)c1-c1cc(C(=O)NC2(C(=O)O)C3CC4CC(C3)CC2C4)nn1-c1ccnc2cc(Cl)ccc12 (stereo unspecified)
Response: -4.12

Request: Now consider CCc1cc2c(cc1N1CCC(N3CCOCC3)CC1)C(C)(C)c1[nH]c3cc(C#N)ccc3c1C2=O .
Response: -11.5

Request: Also, COc1cc(S(N)(=O)=O)cc(C(=O)O)c1OC please.
Response: 10.1

Request: Same again, this time with CN=C(NC#N)NCCSCc1nc[nH]c1C
Response: -4.08

Request: # iterate: O=C(O)CCCCC(CCSCc1ccccc1)SCc1ccccc1 (stereo unspecified)
Response: -7.05

Request: Also CC(=O)OC/C=C(C)/C=C/C=C(C)/C=C/C1=C(C)CCCC1(C)C ?
Response: 4.17

Request: And COc1cc2ncnc(Oc3cccc(NC(=O)Nc4cc(C(C)(C)C(F)(F)F)on4)c3)c2cc1OC ?
Response: -26.2

Request: Next record, please: N=C1CCCN1Cc1[nH]c(=O)[nH]c(=O)c1Cl
Response: -17.6

Request: Now this one: O=C(Nc1cc(Oc2cc(F)c(NC(=O)C3(C(=O)Nc4ccc(F)cc4)CC3)cc2F)ccn1)C1CC1
Response: -9.83

Request: Record: C[C@H](CN1CCCC1)C(=O)c1ccc(C(F)(F)F)cc1
Response: -1.72

Request: Would you mind doing CN(C)[C@@H]1C(=O)C(C(=O)NCN2CCCC2)=C(O)[C@@]2(O)C(=O)C3=C(O)c4c(O)cccc4[C@@](C)(O)C3C[C@@H]12 (stereo partly specified) as well?
Response: -7.75

Request: Now the same for Cc1cccc(Oc2cnc(=O)[nH]c2)c1
Response: 6.68

Request: Next compound up: Cc1ccc2ccc(Cl)cc2n1
Response: 15.8

Request: Follow-up entry: Nc1ccc(S(=O)(=O)Nc2cnc3ccccc3n2)cc1
Response: 8.58

Request: Queued: C/C=C/c1ccc(OC)cc1
Response: 7.49

Request: How about this compound: CC(C(=O)O)c1cccc(Oc2ccccc2)c1 (stereo unspecified)
Response: 9.95

Request: Try CONC(=O)Nc1ccc(-c2sc3c(c2CN(C)C)c(=O)n(-c2ccc(OC)nn2)c(=O)n3Cc2c(F)cccc2F)cc1 next.
Response: -5.64

Request: Could you do the same for NC(=O)Nc1cc(-c2ccc(CN3CCOCC3)cc2)sc1C(N)=O , please?
Response: -17.8

Request: Then this compound: Cc1nc(NC(=O)N2CCC[C@H]2C(N)=O)sc1-c1csc(C(C)(C)C)n1
Response: -23.3

Request: What would you report for Cc1c(I)c(=O)n(-c2ccccc2)n1C ?
Response: 0.251

Request: Also need Cc1onc(-c2ccccc2)c1C(=O)Cl , thanks.
Response: 12.7

Request: Can you check Nc1ncnc2c1ncn2[C@@H]1O[C@H](CO)C[C@H]1O next?
Response: -9.5

Request: Repeat with O=c1cc(-c2ccc(O)cc2)oc2cc(O)cc(O)c12
Response: -18.3

Request: Next up: Nc1nc(-c2nn(Cc3ccccc3F)c3ncccc23)nc(N)c1N1CCOCC1
Response: 8.84

Request: And what about the compound CC(=O)O[C@H]1C[C@@H]2CC[C@@H]3[C@H](CC[C@@]4(C)[C@H]3C[C@H]([N+]3(C)CCCCC3)[C@@H]4OC(C)=O)[C@@]2(C)C[C@@H]1N1CCCCC1 ?
Response: 0.69

Request: Also need C/C=C/C[C@@H](C)C(=O)[C@H]1C(=O)N[C@@H](C(C)C)C(=O)N(C)CC(=O)N(C)[C@@H](CC(C)C)C(=O)N[C@@H](C(C)C)C(=O)N(C)[C@@H](CC(C)C)C(=O)N[C@@H](C)C(=O)N[C@H](C)C(=O)N(C)[C@@H](CC(C)C)C(=O)N(C)[C@@H](CC(C)C)C(=O)N(C)[C@@H](C(C)C)C(=O)N1C , thanks.
Response: 4.11

Request: Now try CC(=O)N(c1onc(C)c1C)S(=O)(=O)c1ccc(N)cc1 .
Response: 0.743

Request: Please give the result for CC(C)[C@@H]1CC[C@@H](C)CC1=O too.
Response: 11.9

Request: Next entry: CC(=O)OCC(=O)[C@@]1(O)[C@H](C)C[C@H]2[C@@H]3CCC4=CC(=O)C=C[C@]4(C)[C@@]3(F)[C@@H](O)C[C@@]21C
Response: 2.72

Request: For Cc1ccc(N)cc1O then?
Response: 2.63

// provenance: PubChem BioAssay (NCATS)
